As shown below, each of these molecules has a reported MIC SC value.
test system: Salmonella choleraesuis; experiment: Bacterial panel testing, MIC by broth microdilution; format: cell-based; details: 20-24 hours growth

// known answers, use as guide
[[record]]
molecule = "NCCCCC(=O)NC[C@H]1O[C@@H]2O[C@H]3[C@H](O)[C@@H](O)[C@@H](O[C@H]4[C@H](O)[C@@H](O)[C@@H](O[C@H]5[C@H](O)[C@@H](O)[C@@H](O[C@H]6[C@H](O)[C@@H](O)[C@@H](O[C@H]7[C@H](O)[C@@H](O)[C@@H](O[C@H]8[C@H](O)[C@@H](O)[C@@H](O[C@H]1[C@H](O)[C@H]2O)O[C@@H]8CNC(=O)CCCCN)O[C@@H]7CNC(=O)CCCCN)O[C@@H]6CNC(=O)CCCCN)O[C@@H]5CNC(=O)CCCCN)O[C@@H]4CNC(=O)CCCCN)O[C@@H]3CNC(=O)CCCCN"
quantity = "MIC SC"
reported_result = ">200 µg/mL"

[[record]]
molecule = "Cl.Cl.Cl.Cl.Cl.Cl.Cl.NC(CO)C(=O)NCC1OC2OC3C(CNC(=O)C(N)CO)OC(OC4C(CNC(=O)C(N)CO)OC(OC5C(CNC(=O)C(N)CO)OC(OC6C(CNC(=O)C(N)CO)OC(OC7C(CNC(=O)C(N)CO)OC(OC8C(CNC(=O)C(N)CO)OC(OC1C(O)C2O)C(O)C8O)C(O)C7O)C(O)C6O)C(O)C5O)C(O)C4O)C(O)C3O (stereo not drawn)"
quantity = "MIC SC"
reported_result = ">200 µg/mL"


Alright, here's another molecule for you.
If you can, please state the reported MIC SC value of [N-]=[N+]=NC[C@H]1O[C@@H]2O[C@H]3[C@H](O)[C@@H](O)[C@@H](O[C@H]4[C@H](O)[C@@H](O)[C@@H](O[C@H]5[C@H](O)[C@@H](O)[C@@H](O[C@H]6[C@H](O)[C@@H](O)[C@@H](O[C@H]7[C@H](O)[C@@H](O)[C@@H](O[C@H]8[C@H](O)[C@@H](O)[C@@H](O[C@H]1[C@H](O)[C@H]2O)O[C@@H]8CN=[N+]=[N-])O[C@@H]7CN=[N+]=[N-])O[C@@H]6CN=[N+]=[N-])O[C@@H]5CN=[N+]=[N-])O[C@@H]4CN=[N+]=[N-])O[C@@H]3CN=[N+]=[N-] .
>200 µg/mL

Origin of values: patent US20110071108A1
